- Protocol description: gradient 5% acetonitrile 3 min, to 50% in 2 min, to 85% in 15 min, held 3 min, 100 µL/min
- Details: column: Zorbax Extend-C18 2.1 x 50 mm; eluents: water / acetonitrile, 0.1% formic acid
Would you mind sorting the entries by RP-LC retention time according to these classes? low value = under 700 s, medium value = from 700 s up to 1000 s, high value = 1000 s and over

>>> label("Cc1cc2[nH]c(C(=O)Nc3cc(F)c(F)cc3F)c(CN3CCCC3)c2s1")
"medium value"
>>> label("O=C(N1CC(Oc2ccc(-c3noc(-c4ccccc4)n3)cc2)C1)C1(c2ccccc2)CC1")
"high value"
>>> label("CC(C)Cn1c(=O)c(-c2ccc(C(=O)NCCC3=CCCCC3)cc2)nc2ccccc21")
"high value"
>>> label("CC1CCCN(CC2CCN(S(=O)(=O)c3ccc(F)cc3Cl)CC2)C1 (centres undefined)")
"low value"
>>> label("CCCN1C(=O)c2cccnc2Sc2cc(C(=O)N3CCCCC3)ccc21")
"medium value"
>>> label("COCc1ncc(C)n1CC1CCN(S(=O)(=O)c2cccc3nsnc23)CC1")
"low value"
>>> label("COc1ccc(-c2nc(-c3cn(-c4cccc(Cl)c4)nn3)no2)c(OC)c1")
"high value"

###

- Protocol description: gradient 5% acetonitrile 3 min, to 50% in 2 min, to 85% in 15 min, held 3 min, 100 µL/min
- Details: column: Zorbax Extend-C18 2.1 x 50 mm; eluents: water / acetonitrile, 0.1% formic acid
Recorded measurements of RP-LC retention time, one per entry
Measurement name: RP-LC retention time (s)

>>> endpoint_result("Cc1nc2c(sc3nc(-c4ccccc4)ccc32)c(=O)n1CC(=O)Nc1ccccc1Cl")
1090
>>> endpoint_result("CCCCOC(=O)c1ccc(NC(=O)c2c(O)c3cccc4c3n(c2=O)CC4)cc1")
1070
>>> endpoint_result("Cc1ccc(Cn2nc(-c3nc(C(C)(C)C)no3)ccc2=O)cc1")
1130
>>> endpoint_result("CCNC(=O)N1CCC(OC(C)=O)CC1")
586
>>> endpoint_result("COc1ccc2[nH]c(=O)c(CCC(=O)NCc3ccncc3)cc2c1")
574

###

- Protocol description: gradient 5% acetonitrile 3 min, to 50% in 2 min, to 85% in 15 min, held 3 min, 100 µL/min
- Details: column: Zorbax Extend-C18 2.1 x 50 mm; eluents: water / acetonitrile, 0.1% formic acid
Recorded measurements of RP-LC retention time, one per entry
Measurement name: RP-LC retention time (s)

>>> endpoint_result("O=C(NC1CCCC1)C1CCN(S(=O)(=O)c2cc(C(=O)N3CCCCCC3)cs2)CC1")
836
>>> endpoint_result("Cc1nn2c(CNC(=O)c3n[nH]c4c3CCCC4)c(-c3ccccc3)nc2s1")
784
>>> endpoint_result("Fc1cccc(CN2CCc3nc(N4CCOCC4)ncc3C2)c1")
604
>>> endpoint_result("CO[C@H]1C(=O)N(C2CCN(S(=O)(=O)c3ccc(C#N)cc3)CC2)[C@H]1c1ccncc1")
624
>>> endpoint_result("CCc1nn2c(CNS(=O)(=O)c3cccc(C)c3)c(-c3ccccc3)nc2s1")
973
>>> endpoint_result("CCc1nncn1C1CCN(S(=O)(=O)c2ccc(OC)cc2)CC1")
668
>>> endpoint_result("O=C(CN1C(=O)c2ccccc2Sc2ncccc21)N1CCC(N2CCCCC2)CC1")
583
>>> endpoint_result("COc1ccc(NC(=O)N2C[C@@H]3C[C@H]2C[C@@H]3NC(=O)c2ccccc2)c(OC)c1")
647
>>> endpoint_result("COC(=O)Cn1c(=O)c2c(nc3n2CCCN3c2ccccc2)n(C)c1=O")
761
>>> endpoint_result("COc1ncc(C(=O)Nc2ccccc2)c(C)n1")
698
>>> endpoint_result("O=C(Cc1cccs1)Nc1cnc(-c2ccccc2)nc1")
893
>>> endpoint_result("O=C(Cn1cccn1)N1CC(F)(F)C[C@H]1c1nc(C2CC2)no1")
723
>>> endpoint_result("O=C(NCc1ccccc1)N1CCN(c2cnn3c(C4CC4)nnc3c2)CC1")
578
>>> endpoint_result("CCn1ccc2oc(C)c(C(=O)NCc3ccc(C(C)C)cc3)c2c1=O")
1130
>>> endpoint_result("COC(=O)c1ccc2c(=O)n(-c3ccc(Cl)cc3)c(N3CCN(C)CC3)nc2c1")
670
>>> endpoint_result("O=C(NCc1csc(C2CCN(C(=O)c3ccc(Cl)cc3)CC2)n1)C1CC1")
725
>>> endpoint_result("COc1cc(NC(=O)NC2CCN(c3ccccc3)C2=O)cc(OC)c1 (stereo not given)")
768
>>> endpoint_result("O=C(CCc1nnn2c1CN(C(=O)COc1ccc(F)cc1)CC2)N1CCCC1")
665
>>> endpoint_result("CN(C)CCNC(=O)Cn1c(=O)n(-c2ccccc2)c2ncccc21")
579
>>> endpoint_result("O=C(c1ccnnc1)N1C[C@@H](COCC2CC2)[C@H](c2ccccn2)C1")
654
